biological target: T1, Mouse-TrKA protein (mouse, UniProt Q3UFB7 34-420, limits assumed); assay: ELISA, hybridoma supernatant on Mouse-TrKA
T1 construct: also called Mouse-TrKA receptor
T1 sequence (Q3UFB7 34-420 limits assumed): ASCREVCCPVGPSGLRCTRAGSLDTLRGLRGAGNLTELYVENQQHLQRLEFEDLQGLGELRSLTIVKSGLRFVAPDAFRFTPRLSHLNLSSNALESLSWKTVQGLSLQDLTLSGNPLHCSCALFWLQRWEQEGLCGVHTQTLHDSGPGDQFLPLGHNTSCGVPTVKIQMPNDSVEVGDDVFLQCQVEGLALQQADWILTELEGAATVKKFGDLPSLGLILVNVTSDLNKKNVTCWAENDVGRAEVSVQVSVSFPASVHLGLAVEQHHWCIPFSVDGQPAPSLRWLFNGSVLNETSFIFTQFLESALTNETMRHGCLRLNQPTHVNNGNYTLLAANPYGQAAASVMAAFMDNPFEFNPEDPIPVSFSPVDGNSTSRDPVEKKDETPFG
Below is a list of entries, each paired with its recorded OD450 value.

>>> recorded_measurement("mouse monoclonal antibody produced by hybridoma clone 15D4 (antibody, V domains shown, also called 15D4 (positive clone supernatant)) VH: QVQLQQSGAELMKPGASVKISCKATGYTFSSYWIEWVKQRPGHGLEWLGEFLPRSGKTNYNEEFRGKATFTADTSSNTAYMQLSSLTSEDSAVYYCARTDPPYFGVWGAGTMVAVSS VL: QIVLTQSPPIMSASPGEKVTMTCSASSNISYMHWYQQKSGTSPKRWIYDTSKLASGVPARFSGSGSGTSYSLTISSMEAEDAATYYCQQWSSVPLTFGAGTKLEIK")
"~3.5 OD450"
>>> recorded_measurement("mouse monoclonal antibody produced by hybridoma clone 23E12 (antibody, V domains shown, also called 23E12 (positive clone supernatant)) VH: QVQLQQSGAELVRPGTSVKISCKASGYAFTNYWLGWMKQRPGHGLEWIGDFYPRTGNTFYNENFKGKVTLTADKSSNTAYMQLSSLTSEDSAVYLCARAGTGFDYWGQGTTLTVSS VL: SIVMTQSPKSMSMSVGERVTLSCKASENVGGYVSWYQQKPDQSPKLLIYGASSRHTGVPDRFTGSGSETDFTLTISSVQAEDLAAYHCGQNYIYPFTFGGGTKLEIK")
"~3.5 OD450"

Recorded OD450 for mouse monoclonal antibody produced by hybridoma clone 21E5 (antibody, V domains shown, also called 21E5 (positive clone supernatant)) VH: QVQLQQSGAELMKPGASMKISCKATGYTFSTYWIEWVKQRPGHGLEWIGENLPGRHITNYNEKFKGKATFTADTSSNTAYMQLSSLTSEDSAVYYCARGRGTYYFDYWGQGTPLTVSS VL: DIVMTQAAFSTPVTLGTSASISCRSSQSLLHSNGITYLYWYLQKPGQSPQLLIYQMSNLASGVPDRFSSSGSGTDFTLRISRVEAEDVGVYYCAQNLEFPFTFGSGTKLEIK , please? ~3.5 OD450
